Quick list: Ratio (KD) WT/clones per entry.
# studyTarget: T1, canine NGF tagged at the C-terminus with the Flag tag (canine, UniProt A0A8I3PYI3 122-241)
# T1 construct: mature; Expressed with baculovirus technology; also called feline NGF (processed form identical)
# T1 sequence (A0A8I3PYI3 entry or part of it): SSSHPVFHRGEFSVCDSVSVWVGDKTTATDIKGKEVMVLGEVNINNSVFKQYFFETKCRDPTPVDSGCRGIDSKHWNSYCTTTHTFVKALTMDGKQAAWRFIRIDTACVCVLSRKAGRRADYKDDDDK
# procedureSummary: SPR off-rate assay, Fab-SASA on BSA chip
Number, no unit, nothing else.

I would be grateful if you could share the reported Ratio (KD) WT/clones for AHF17595 (Fab, V domains shown, not shown: small tags and cut ends) VH: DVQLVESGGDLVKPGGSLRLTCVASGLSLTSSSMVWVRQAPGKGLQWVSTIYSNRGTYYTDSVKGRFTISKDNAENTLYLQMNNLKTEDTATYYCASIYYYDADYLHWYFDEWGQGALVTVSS VL: EIQMTQSPTSLSASVGDRVTITCRASEGIQNNLSWYQQTPGKAPKLLIYATSNLHSGVPSRFSGSGSGTDFTLTISSLQPEDFATYYCQQGYKWPLTFGGGTKLEITR . 615

Sample AHF17600 (Fab, V domains shown, not shown: small tags and cut ends) VH: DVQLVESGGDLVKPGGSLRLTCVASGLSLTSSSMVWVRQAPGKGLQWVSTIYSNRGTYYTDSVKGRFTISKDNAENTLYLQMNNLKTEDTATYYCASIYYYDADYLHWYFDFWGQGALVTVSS VL: EIQMTQSPTSLSASVGDRVTITCRASEGISNNLSWYQQTPGKAPKLLIYATSVLHSGVPSRFSGSGSGTDFTLTISSLQPEDFATYYCQQGYKWPLTFGGGTKLEITR — what was its Ratio (KD) WT/clones? 10.5

Data origin, for the record: patent US20250011410A1
